Listed next: entries and their corresponding inhibition at 10 µM.
- assay.target: B1R receptor of the rat (rB1R) (Rattus norvegicus)
- Construct: expressed in transfected cells; host or cells: CHO K1 cells, stably transfected
- Sequence (P97583 1-337): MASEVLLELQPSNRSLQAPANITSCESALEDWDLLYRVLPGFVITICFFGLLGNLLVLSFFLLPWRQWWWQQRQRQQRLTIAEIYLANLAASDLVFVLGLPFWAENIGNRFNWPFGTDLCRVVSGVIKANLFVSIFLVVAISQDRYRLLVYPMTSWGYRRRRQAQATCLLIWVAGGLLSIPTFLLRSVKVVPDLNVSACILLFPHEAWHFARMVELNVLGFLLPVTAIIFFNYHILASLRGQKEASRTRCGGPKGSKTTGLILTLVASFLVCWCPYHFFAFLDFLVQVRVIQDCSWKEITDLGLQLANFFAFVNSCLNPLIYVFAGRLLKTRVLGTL
- protocol.summary: FLIPR Ca2+ functional study on bradykinin receptor 1, rB1R cells (CHO K1)
- Format: cell-based
- condition.parameters: 10 μM test substance; CHO K1 cells with rat B1R; agonist Des-Arg9-bradykinin at EC80; read-out: B1R antagonism, rat [10 μM] % inhibition

In the examples that follow, each entry is paired with its recorded inhibition at 10 µM.
{"columns": ["compound", "assay.target", "endpoint.value"],
 "data": [
  ["O=C(c1ccc2c(c1)CN(S(=O)(=O)c1ccc(F)c3ccccc13)CC2)N1CCC2(CC1)CCN(c1ccncc1)CC2", "B1R receptor of the rat (rB1R) (Rattus norvegicus)", "90%"],
  ["O=C(c1ccc2c(c1)N(C(=O)c1ccccc1Cl)CC2)N1CCC2(CC1)CCN(c1ccncc1)CC2", "B1R receptor of the rat (rB1R) (Rattus norvegicus)", "78%"],
  ["O=C(c1ccc2c(c1)CN(C(=O)c1ccc(Cl)s1)C2)N1CCC2(CC1)CCN(c1ccncc1)CC2", "B1R receptor of the rat (rB1R) (Rattus norvegicus)", "70%"],
  ["O=C(c1ccc2c(c1)CN(C(=O)c1ccc(Cl)s1)CC2)N1CCC2(CC1)CCN(c1ccncc1)CC2", "B1R receptor of the rat (rB1R) (Rattus norvegicus)", "102%"]
]}

So, COc1cc(C)c(S(=O)(=O)N2CCc3ccc(C(=O)N4CCC5(CCN(Cc6ccccc6)C5)C4)cc3C2)c(C)c1 (centres unmarked) ? Its inhibition at 10 µM was 64%

Just for reference, patent US8357717B2 is where these values come from.
